Source listed as PubChem BioAssay.

Test: enhancers of glutamate uptake in motor neurons, MN-1 cell line (AID 1612);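 further: tested at 1 µM final; 0% = mean of DMSO vehicle wells on each plate; positive means more glutamate uptake than control and negative means less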
Conditions: MN-1 motor neuron cells, stronger effect = higher value
glutamate uptake change values, listed per item
Write the answer as a number in %, unit excluded.

Take a look at these entries with their results.
# compound, displayUnit, glutamate uptake change
measured = [
    ("C=C(C)[C@@H]1[C@H]2OC(=O)[C@@H]1[C@]1(O)C[C@H]3O[C@]34C(=O)O[C@H]2[C@]14C", "%", 1.09),
    ("Oc1ccc2c3c1OC1[C@@H](O)CC[C@@]4(O)[C@@H](C2)N(CC2CCC2)CC[C@]314 (some centres not stated)", "%", -2.6),
    ("CCCCC[C@H]1C(=O)O[C@H](C)[C@H](NC(=O)c2cccc(NC=O)c2O)C(=O)O[C@@H](C)[C@@H]1OC(=O)CC(C)C", "%", 3.11),
    ("COc1ccc2c(c1OC)C(=O)O[C@H]2[C@H]1c2cc3c(cc2CCN1C)OCO3", "%", 13.5),
    ("COc1ccc(Cc2nccc3cc(OC)c(OC)cc23)cc1OC", "%", -13.9),
]

Entry CO[C@H]1[C@H](O)[C@@H](O[C@H]2CC[C@]3(C=O)C4CC[C@]5(C)[C@@H](C6=CC(=O)OC6)CC[C@]5(O)C4CC[C@@H]3C2)O[C@@H](C)[C@@H]1O (some centres not stated) ; glutamate uptake change = 3.74

Reported glutamate uptake change of CCCCCCCCCCCCCCCC[N+](C)(C)C : -41.1

Lookup result for CC(CCc1ccccc1)NC(C)C(O)c1ccc(O)cc1 (configuration not stated) ; measured glutamate uptake change: -2.97

----------
Test: glucagon-like peptide 1 release enhancers, primary assay, NCI-H716 cell line, NPC library (AID 1117341); further: reference of the scale not given here
Conditions: NCI-H716 cells, at 10 µM, stronger effect = higher value
measuredProperty: GLP1 secretion stimulation (%)
Express the result in % but write the number alone.

Known results for compounds:
# compound, GLP1 secretion stimulation [%]
records = [
    ("COc1cccc2c1C(=O)c1c(O)c3c(c(O)c1C2=O)C[C@@](O)(C(=O)CO)CC3OC1CC(N2CCOC(OC)C2)C(O)C(C)O1 (stereo not given in full)", 7.5),
    ("CC(Cc1ccccc1)NC=O (stereo not given)", -5.4),
    ("C[C@]12CC[C@H]3[C@@H](CCC4=CC(=O)CC[C@@H]43)[C@@H]1CC[C@@H]2OC(=O)CCc1ccco1", -3.2),
    ("Nc1ccc([As](=O)(O)O)cc1", 0.9),
    ("C[C@]12C[C@@H]3S[C@H]3C[C@@H]1CC[C@H]1[C@H]3CC[C@@H](O)[C@@]3(C)CC[C@@H]12", -4.2),
    ("CC[C@]1(O)CC[C@H]2[C@@H]3CCC4=CCCC[C@@H]4[C@H]3CC[C@@]21C", 2.3),
]

Now for a further compound.
For record FC(F)(F)c1cccc(C2=CCN(CCc3ccc4ccccc4c3)CC2)c1 the listed GLP1 secretion stimulation is 3.7

----------
System: Aerobactin synthetase IucA (Klebsiella pneumoniae hvKP1)
Experiment: Biochemical IucA enzyme inhibition primary screen of the Spectrum library (AID 1346200);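 further: 100% = wells without compound and 0% = wells lacking enzyme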
Settings: malachite green pyrophosphate, A620, at 8 µM, stronger effect = lower value
Each entry below carries its reported activity remaining.
Express the result in % but write the number alone.

# compound, testedTarget, measuredProperty, readoutValue
rows = [
    ("O=C(Nc1ccc(C(=O)O)c(O)c1)c1ccccc1", "Aerobactin synthetase IucA (Klebsiella pneumoniae hvKP1)", "activity remaining", 89.3),
    ("O=C(O)c1cc(=O)c2c(OCC(O)COc3cccc4oc(C(=O)O)cc(=O)c34)cccc2o1", "Aerobactin synthetase IucA (Klebsiella pneumoniae hvKP1)", "activity remaining", 115),
    ("Oc1cc(O)c2c(c1)O[C@H](c1cc(O)c(O)c(O)c1)[C@H](O)C2", "Aerobactin synthetase IucA (Klebsiella pneumoniae hvKP1)", "activity remaining", 116),
    ("Oc1c(Cl)cc(Cl)cc1Sc1cc(Cl)cc(Cl)c1O", "Aerobactin synthetase IucA (Klebsiella pneumoniae hvKP1)", "activity remaining", 118),
]

We now examine a further compound.
The reported value for CC1(C)S[C@@H]2[C@H](NC(=O)[C@H](NC(=O)N3CCNC3=O)c3ccccc3)C(=O)N2C1C(=O)O (stereo not given in full) in terms of activity remaining is 95.7
